condition: in 2-methoxyethanol, 298.15 K
readout: solubility (mole fraction)
Give bare numbers.

Using known records, supply solubility (mole fraction) for `O=[N+]([O-])O.c1ccc2c(CC3=NCCN3)cccc2c1`
0.0601

###

condition: in ethylene glycol, 323.15 K
readout: solubility (mole fraction)
Answers are plain numbers.

// Input: `O=[N+]([O-])O.c1ccc2c(CC3=NCCN3)cccc2c1` . Output its solubility (mole fraction) only.
0.0823

###

condition: in isopropanol, 293.15 K
readout: solubility (mole fraction)
Give bare numbers.

Supply recorded solubility (mole fraction) for `O=[N+]([O-])O.c1ccc2c(CC3=NCCN3)cccc2c1` here.
0.00132

###

condition: in methanol, 288.15 K
readout: solubility (mole fraction)
Answers are plain numbers.

Return reported solubility (mole fraction). Input compound: `O=[N+]([O-])O.c1ccc2c(CC3=NCCN3)cccc2c1`
0.0155

###

condition: in 2-methoxyethanol, 293.15 K
readout: solubility (mole fraction)
Answers are plain numbers.

Could you please provide reported solubility (mole fraction) for `O=[N+]([O-])O.c1ccc2c(CC3=NCCN3)cccc2c1` ? Thanks!
0.0515

###

condition: in isopropanol, 298.15 K
readout: solubility (mole fraction)
Numbers only.

Write down solubility (mole fraction) measured for item `O=[N+]([O-])O.c1ccc2c(CC3=NCCN3)cccc2c1`
0.00161

###

condition: in methanol, 278.15 K
readout: solubility (mole fraction)

Specify reported solubility (mole fraction) for the compound shown: `O=[N+]([O-])O.c1ccc2c(CC3=NCCN3)cccc2c1`
0.0104

###

condition: in ethylene glycol, 313.15 K
readout: solubility (mole fraction)
One number for each entry.

Kindly indicate its recorded solubility (mole fraction). Item: `O=[N+]([O-])O.c1ccc2c(CC3=NCCN3)cccc2c1`
0.061

###

condition: in 2-methoxyethanol, 288.15 K
readout: solubility (mole fraction)

Complete the entry with solubility (mole fraction) for `O=[N+]([O-])O.c1ccc2c(CC3=NCCN3)cccc2c1`
0.046

###

condition: in isopropanol, 288.15 K
readout: solubility (mole fraction)
Give bare numbers.

Check the records and state solubility (mole fraction) for `O=[N+]([O-])O.c1ccc2c(CC3=NCCN3)cccc2c1`
0.00101

###

condition: in 2-methoxyethanol, 318.15 K
readout: solubility (mole fraction)

Identify measured solubility (mole fraction) corresponding to `O=[N+]([O-])O.c1ccc2c(CC3=NCCN3)cccc2c1`
0.101

###

condition: in ethylene glycol, 303.15 K
readout: solubility (mole fraction)

Name the recorded solubility (mole fraction) of the molecule listed here: `O=[N+]([O-])O.c1ccc2c(CC3=NCCN3)cccc2c1`
0.0428

###

condition: in isopropanol, 283.15 K
readout: solubility (mole fraction)
Give bare numbers.

Supply solubility (mole fraction) value. Item: `O=[N+]([O-])O.c1ccc2c(CC3=NCCN3)cccc2c1`
0.000763

###

condition: in isopropanol, 323.15 K
readout: solubility (mole fraction)

Please give the documented solubility (mole fraction) of `O=[N+]([O-])O.c1ccc2c(CC3=NCCN3)cccc2c1`
0.00489

###

condition: in methanol, 303.15 K
readout: solubility (mole fraction)
Give bare numbers.

Fill in reported solubility (mole fraction) for this entry: `O=[N+]([O-])O.c1ccc2c(CC3=NCCN3)cccc2c1`
0.029

###

condition: in methanol, 293.15 K
readout: solubility (mole fraction)

Assign solubility (mole fraction) to the following record: `O=[N+]([O-])O.c1ccc2c(CC3=NCCN3)cccc2c1`
0.0193

###

condition: in ethylene glycol, 278.15 K
readout: solubility (mole fraction)
Numbers only.

Return reported solubility (mole fraction). Input molecule: `O=[N+]([O-])O.c1ccc2c(CC3=NCCN3)cccc2c1`
0.0168

###

condition: in methanol, 283.15 K
readout: solubility (mole fraction)
Numbers only.

Find the measured solubility (mole fraction) of `O=[N+]([O-])O.c1ccc2c(CC3=NCCN3)cccc2c1` and report it.
0.013

###

condition: in methanol, 323.15 K
readout: solubility (mole fraction)
Numbers only.

Recall and state the measured solubility (mole fraction) for `O=[N+]([O-])O.c1ccc2c(CC3=NCCN3)cccc2c1` .
0.0705

###

condition: in methanol, 318.15 K
readout: solubility (mole fraction)
Answers are plain numbers.

Kindly indicate its recorded solubility (mole fraction). Item: `O=[N+]([O-])O.c1ccc2c(CC3=NCCN3)cccc2c1`
0.057

###

condition: in ethylene glycol, 283.15 K
readout: solubility (mole fraction)

Please report the measured solubility (mole fraction) for `O=[N+]([O-])O.c1ccc2c(CC3=NCCN3)cccc2c1`
0.0212

###

condition: in methanol, 308.15 K
readout: solubility (mole fraction)
One number for each entry.

Specify reported solubility (mole fraction) for the compound shown: `O=[N+]([O-])O.c1ccc2c(CC3=NCCN3)cccc2c1`
0.0368

###

condition: in ethylene glycol, 288.15 K
readout: solubility (mole fraction)
Numbers only.

For the compound `O=[N+]([O-])O.c1ccc2c(CC3=NCCN3)cccc2c1` , give its reported solubility (mole fraction).
0.0257

###

condition: in isopropanol, 278.15 K
readout: solubility (mole fraction)

Indicate its recorded solubility (mole fraction); the compound in question is `O=[N+]([O-])O.c1ccc2c(CC3=NCCN3)cccc2c1`
0.000577

###

condition: in isopropanol, 303.15 K
readout: solubility (mole fraction)
Numbers only.

Supply solubility (mole fraction) value. Item: `O=[N+]([O-])O.c1ccc2c(CC3=NCCN3)cccc2c1`
0.00206

###

condition: in isopropanol, 313.15 K
readout: solubility (mole fraction)
Answers are plain numbers.

Return value of solubility (mole fraction) for input `O=[N+]([O-])O.c1ccc2c(CC3=NCCN3)cccc2c1` , no commentary.
0.00327

###

condition: in ethylene glycol, 318.15 K
readout: solubility (mole fraction)
Answers are plain numbers.

Identify measured solubility (mole fraction) corresponding to `O=[N+]([O-])O.c1ccc2c(CC3=NCCN3)cccc2c1`
0.0704

###

condition: in ethylene glycol, 298.15 K
readout: solubility (mole fraction)
One number for each entry.

Please list solubility (mole fraction) recorded for the compound `O=[N+]([O-])O.c1ccc2c(CC3=NCCN3)cccc2c1`
0.0359

###

condition: in 2-methoxyethanol, 303.15 K
readout: solubility (mole fraction)
One number for each entry.

For the compound `O=[N+]([O-])O.c1ccc2c(CC3=NCCN3)cccc2c1` , report solubility (mole fraction).
0.0662

###

condition: in methanol, 313.15 K
readout: solubility (mole fraction)

Give the reported value of solubility (mole fraction) for this record: `O=[N+]([O-])O.c1ccc2c(CC3=NCCN3)cccc2c1`
0.0473

###

condition: in methanol, 298.15 K
readout: solubility (mole fraction)

Note down solubility (mole fraction) recorded for `O=[N+]([O-])O.c1ccc2c(CC3=NCCN3)cccc2c1`
0.0234

Entry source: BigSolDB 2.1
